Each recorded value in this set is attributed to ChEMBL document CHEMBL1201862.

# EXPERIMENTAL_SYSTEM: Sentrin-specific protease 8 (Homo sapiens, UniProt Q96LD8);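 note: luminescence read-out of SENP8 inhibition, dose-response confirmation following an ultra-high-throughput screen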
# Sequence (Q96LD8 whole entry): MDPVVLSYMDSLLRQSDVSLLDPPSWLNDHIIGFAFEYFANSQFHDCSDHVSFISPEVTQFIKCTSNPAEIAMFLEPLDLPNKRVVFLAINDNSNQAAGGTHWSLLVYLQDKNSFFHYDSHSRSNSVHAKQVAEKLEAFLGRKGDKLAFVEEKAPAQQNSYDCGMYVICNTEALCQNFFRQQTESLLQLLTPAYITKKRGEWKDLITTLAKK
# Type: functional
The source made the active and inactive calls.
Hi there, use one of these labels in your reply, thanks! active, inactive

Example entries and their recorded answers appear below.
# CHEMICAL_STRUCTURE, QUALITATIVE_LABEL
rows = [
    ("O=C(c1ccccc1)c1coc2c1C(=O)c1ccccc1C2=O", "active"),
    ("COc1ccc2c(c1)CCC(/C=N/c1ccc3c(c1)OCO3)=C2O", "active"),
    ("O=C(Nc1ccccc1)c1ccc(-c2ccccc2Cl)o1", "inactive"),
    ("O=C(OCC(=O)N1CCC(c2ccccc2)=N1)c1ccc([N+](=O)[O-])s1", "active"),
]

Shift focus to the following entry.
Returns: the outcome recorded for Brc1ccc(NN=Nc2ccccc2)cc1 in this assay. active

###

# MEASUREMENT_NOTES: cells
# Type: functional
Activity calls are given as the source filed them.
Assign IC50 to each entry below.

The cases that follow already have their IC50 on record.
# COMPOUND, VALUE
measured = [
    ("COc1cccc2sc(Nc3nnc(-c4ccc(F)cc4)o3)nc12", "15.3 µM (active)"),
    ("O=[N+]([O-])c1ccc(CN2CCN(c3ccc(F)cc3)CC2)o1", "< 0.1 µM (active)"),
    ("CCOC(=O)COc1ccc2ccccc2c1/C=C/[N+](=O)[O-]", "2.81 µM (active)"),
    ("Cc1nn2c(NCCN(C)C)c3c(nc2c1-c1ccccc1)CCCC3", "5.84 µM (active)"),
    ("O=C(NCCCN1CCOCC1)c1ccc(CSc2ccc(Cl)cc2)cc1", "34.3 µM (active)"),
]

# next compound below
Looking up CC(C)=CCN1CCN(CCC2=C(C)CCCC2(C)C)CC1CCO (stereo unspecified) , I see its IC50 listed as 21.8 µM (active)

###

Assign IC50 to each entry below.
# EXPERIMENTAL_SYSTEM: SUMO-activating enzyme (Homo sapiens, UniProt Q9UBT2)
# Sequence (Q9UBE0 whole entry): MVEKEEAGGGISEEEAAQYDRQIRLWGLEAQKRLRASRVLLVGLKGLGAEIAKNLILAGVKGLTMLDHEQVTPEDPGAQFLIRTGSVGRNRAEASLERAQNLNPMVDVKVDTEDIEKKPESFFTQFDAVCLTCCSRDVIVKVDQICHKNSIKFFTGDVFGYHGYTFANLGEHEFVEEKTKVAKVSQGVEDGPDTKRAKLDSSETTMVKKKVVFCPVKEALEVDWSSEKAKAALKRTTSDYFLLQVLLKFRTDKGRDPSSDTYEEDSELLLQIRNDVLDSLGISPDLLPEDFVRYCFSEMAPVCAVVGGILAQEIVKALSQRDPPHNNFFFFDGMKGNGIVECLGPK
# Sequence (Q9UBT2 whole entry): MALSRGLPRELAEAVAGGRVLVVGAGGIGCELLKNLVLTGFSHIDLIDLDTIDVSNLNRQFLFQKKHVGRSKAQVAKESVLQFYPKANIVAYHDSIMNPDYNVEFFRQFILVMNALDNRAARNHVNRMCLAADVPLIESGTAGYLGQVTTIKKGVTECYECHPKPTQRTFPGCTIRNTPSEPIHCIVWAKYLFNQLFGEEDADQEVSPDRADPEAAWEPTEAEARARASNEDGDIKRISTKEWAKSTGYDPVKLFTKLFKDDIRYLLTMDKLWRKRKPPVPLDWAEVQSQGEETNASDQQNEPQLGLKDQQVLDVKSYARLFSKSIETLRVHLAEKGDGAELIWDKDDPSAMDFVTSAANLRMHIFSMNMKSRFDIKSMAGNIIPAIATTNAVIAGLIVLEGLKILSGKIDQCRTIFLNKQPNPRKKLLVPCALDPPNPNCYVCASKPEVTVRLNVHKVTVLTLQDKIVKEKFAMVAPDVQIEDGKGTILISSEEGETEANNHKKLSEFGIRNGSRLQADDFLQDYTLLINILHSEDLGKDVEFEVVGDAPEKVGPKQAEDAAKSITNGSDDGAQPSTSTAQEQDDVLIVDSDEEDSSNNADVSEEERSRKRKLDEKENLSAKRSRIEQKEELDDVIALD
# MEASUREMENT_NOTES: blockers of SAE1/SAE2–UBC9 SUMO transfer – biochemical, HTRF, uHTS, primary screen (AID 2006)
# Format: protein-complex assay
Activity calls are given as the source filed them.

The cases that follow already have their IC50 on record.
# CHEMICAL_STRUCTURE, IC50
records = [
    ("CCOC(=O)c1c(C)oc2c1c(/C=N/CCC(=O)O)c(O)c1ccccc12", "28.8 µM (active)"),
    ("COc1cc(C(c2c(C)[nH]n(-c3ccccc3)c2=O)c2c(C)[nH]n(-c3ccccc3)c2=O)cc(OC)c1OC", "33.9 µM (active)"),
    ("Cc1cc(/C=C2\\C(=N)N3N=C(c4ccco4)SC3=NC2=O)c(C)n1Cc1ccccc1", "7.54 µM (active)"),
]

Looking up Cc1ccsc1/C=N/c1ccc(O)cc1 , I see its IC50 listed as 9.41 µM (active)
